# System: UACC-62
# EXPERIMENT: NCI tumour cell line growth inhibition, 48 h
Calls of active or inactive are those of the source. Cut-off read from the data, not from the text of the source: active = GI50 up to about 1.1 µM and inactive = higher.
Outcomes: 1 = active, -1 = inactive

{"COMPOUND": "CN(C)c1n2c3cc([N+](=O)[O-])ccc3[n+]3c(N(C)C)n4ccccc4c3c2c2cccc[n+]12.[O-][Cl+3]([O-])([O-])[O-].[O-][Cl+3]([O-])([O-])[O-]", "LABEL_CLASS": -1}
{"COMPOUND": "COC(=O)CCc1cc(OC)c2c(c1)[C@H](C(=O)OC)[C@@H](c1ccc(O)c(OC)c1)O2", "LABEL_CLASS": -1}
{"COMPOUND": "Cc1nc2nnc(C)n2c2c1C(=O)Nc1ccccc1N2", "LABEL_CLASS": -1}
{"COMPOUND": "CC1Cc2c(cc(N)nc2Br)NC1=O (configuration not stated)", "LABEL_CLASS": -1}
{"COMPOUND": "COc1cc([C@@H]2c3[nH]c4ccccc4c3C(Nc3ccc([N+](=O)[O-])cc3)[C@H]3COC(=O)N23)cc(OC)c1O (some centres not stated)", "LABEL_CLASS": 1}
{"COMPOUND": "C/C(=C\\CNc1ncnc2c1ncn2CCC(=O)OC(C)(C)C)CO", "LABEL_CLASS": -1}
{"COMPOUND": "CC(C)C1CC(CO)(CNc2cc(Cl)nc(N)n2)C1 (configuration not stated)", "LABEL_CLASS": -1}
{"COMPOUND": "O=[N+]([O-])c1c(F)c(F)c2c(c1F)N(CCCCCl)c1ccccc1S2", "LABEL_CLASS": -1}
{"COMPOUND": "Cc1ccc(S(=O)(=O)CC2(Br)CCc3ccccc3C2=O)cc1 (configuration not stated)", "LABEL_CLASS": -1}
{"COMPOUND": "CCOC(=O)c1cc(OC(=O)CC)c2c(OC)ccc(OC)c2c1", "LABEL_CLASS": -1}
{"COMPOUND": "COCn1c(C)c(C)c2c(=O)oc(N(C)C)nc21", "LABEL_CLASS": -1}
{"COMPOUND": "CC(=O)/C(=C/NC(=S)N/N=C1\\C(=O)Nc2ccccc21)C(=O)Nc1ccccc1C", "LABEL_CLASS": -1}
{"COMPOUND": "COc1cc(-c2c(C(C)=O)c(-c3ccccc3)n(C3OC(COC(C)=O)C(OC(C)=O)C(OC(C)=O)C3OC(C)=O)c(=S)c2C#N)ccc1O (configuration not stated)", "LABEL_CLASS": -1}
{"COMPOUND": "COP(=O)(/C=C/c1cc(C(=O)OCc2ccccc2)n(S(=O)(=O)c2ccccc2)c1)OC", "LABEL_CLASS": -1}
{"COMPOUND": "COC(=O)Cc1c2n(c3ccccc13)C(=O)N1c3ccccc3C(CC(=O)OC)C21 (configuration not stated)", "LABEL_CLASS": -1}
{"COMPOUND": "COc1cc(C2C(Cl)C(=O)N2c2c(C)n(C)n(-c3ccccc3)c2=O)ccc1O (configuration not stated)", "LABEL_CLASS": -1}
{"COMPOUND": "COc1ccc(OC)c2sc(N3C(=O)/C(=C/c4cccc(Oc5ccccc5)c4)N=C3c3ccccc3)nc12", "LABEL_CLASS": -1}
{"COMPOUND": "CC1(C)N=C(N)N=C(N)N1c1cccc(Cl)c1", "LABEL_CLASS": -1}
{"COMPOUND": "O=C1NC(Nc2ccccc2)=NC(C(F)(F)F)(C(F)(F)F)N1", "LABEL_CLASS": -1}
{"COMPOUND": "O=C1C=CC(=O)c2c(NCC3CC3)ccc(NCC3CC3)c21", "LABEL_CLASS": -1}
{"COMPOUND": "CC1=C/C(=N/N2C(=O)/C(=C/c3ccc(Cl)cc3)N=C2c2ccccc2)CC(C)(C)C1", "LABEL_CLASS": -1}
{"COMPOUND": "NC(CNO)C(=O)O (configuration not stated)", "LABEL_CLASS": -1}
{"COMPOUND": "COC(=O)/C=C/C(=O)Nc1cc(Cl)c(Cl)cc1CC(=O)N(C)[C@H]1CCCC[C@@H]1N1CCCC1", "LABEL_CLASS": -1}
{"COMPOUND": "O=C1Nc2ccc(S(=O)(=O)O)cc2/C1=C1/Nc2ccc(Br)cc2C1=O", "LABEL_CLASS": -1}
{"COMPOUND": "COc1cc(OC)c2c(=O)c(OC)c(-c3ccc4c(c3)OCO4)oc2c1", "LABEL_CLASS": -1}
{"COMPOUND": "O=C(Cc1nc2ccc([N+](=O)[O-])cc2nc1O)C(=O)Nc1cc(Cl)c(Cl)cc1Cl", "LABEL_CLASS": -1}
{"COMPOUND": "CN1B(c2ccccc2)N(C)C(=O)N(C)C1=O", "LABEL_CLASS": -1}
{"COMPOUND": "CO/N=C(/C(=O)OC)c1ccccc1COc1cccc(C(F)(F)F)c1", "LABEL_CLASS": -1}
{"COMPOUND": "CC(C)(C)c1cc(C(O)(C(F)(F)F)C(F)(F)F)c2c(c1)C(C(F)(F)F)(C(F)(F)F)OC(c1ccccc1)(C(C)(C)C)N2 (configuration not stated)", "LABEL_CLASS": -1}
{"COMPOUND": "COc1ccc(C2=NN(C(=O)c3ccccc3)C(O)(c3cc(F)c(Cl)cc3Cl)C2)cc1OC (configuration not stated)", "LABEL_CLASS": -1}
{"COMPOUND": "CCOC(=O)NC(C(F)(F)F)(C(F)(F)F)P(=O)(OCC(C)C)OCC(C)C", "LABEL_CLASS": -1}
{"COMPOUND": "CCOc1ccc(NC(=O)C(=O)C(C(=O)c2ccc3ccccc3c2)C2OC(=O)c3ccccc32)cc1 (configuration not stated)", "LABEL_CLASS": -1}
